- Study conditions: in formic acid, 309.95 K
Measure: solubility (mole fraction)

- Molecule: "OC1OC[C@@H](O)[C@H](O)[C@H]1O (stereo partly specified)"
  Test result: 0.175

----------
- Study conditions: in formic acid, 300.45 K
Measure: solubility (mole fraction)

- Molecule: "OC1OC[C@@H](O)[C@H](O)[C@H]1O (stereo partly specified)"
  Test result: 0.13

----------
- Study conditions: in formic acid, 301.85 K

- Compound: "OC1OC[C@@H](O)[C@H](O)[C@H]1O (stereo partly specified)"
  solubility (mole fraction): 0.139

----------
- Study conditions: in formic acid, 324.85 K

- Compound: "OC1OC[C@@H](O)[C@H](O)[C@H]1O (stereo partly specified)"
  solubility (mole fraction): 0.244
